Test: S16 Schwann cell PMP22 intronic element firefly luciferase assay (AID 624032); note: nearly all actives have a fitted effect of over 30% in size
Settings: S16 rat Schwann cells, PMP22 element FLuc, 24 h; series mostly up to 57.5 µM
Records with an inconclusive call do not appear. Calls of active or inactive are those of the source. Calls come from the whole dose curve; as a rule, active = well fitted inhibition curve with a large enough effect; inconclusive = small, poorly fitted or top-dose-only effect; inactive = no such curve, though single readings can be large or run the other way.
Possible outcomes: Y = active, N = inactive

compound: CC1(C)C(/C=C/C=C/C=C/C=C2\N(CCCCS(=O)(=O)O)c3ccc4ccccc4c3C2(C)C)=[N+](CCCCS(=O)(=O)[O-])c2ccc3ccccc3c21
qualitative-label: N

compound: COc1ccc(-c2nc3ccc(C4=C(C)CC(=O)NN4)cc3[nH]2)cc1
qualitative-label: N

compound: CNCC(=O)NC(CCCN=C(N)N)C(=O)NC(C(=O)NC(Cc1ccc(O)cc1)C(=O)NC(C(=O)NC(Cc1cnc[nH]1)C(=O)N1CCCC1C(=O)NC(C)C(=O)O)C(C)C)C(C)C (stereo not drawn)
qualitative-label: N

compound: CCOC(=O)C(CS)NCCN[C@@H](CS)C(=O)OCC (stereo partly drawn)
qualitative-label: Y

compound: CC(C)C[C@H](NC(=O)[C@@H](Cc1c[nH]c2ccccc12)NC(=O)[C@@H](Cc1ccc(O)cc1)NC(=O)[C@@H](CO)NC(=O)[C@@H](Cc1c[nH]c2ccccc12)NC(=O)C(Cc1cnc[nH]1)NC(=O)C1CCC(=O)N1)C(=O)N[C@@H](CCCN=C(N)N)C(=O)N1CCC[C@@H]1C(=O)NCC(N)=O (stereo partly drawn)
qualitative-label: N

compound: CC(=O)OCC(=O)[C@@]1(O)CCC2C3CCC4=CC(=O)CC[C@]4(C)C3=CC[C@@]21C (stereo partly drawn)
qualitative-label: N

compound: NC(=O)CCC1NC(=O)C(Cc2ccccc2)NC(=O)C(Cc2ccc(O)cc2)NC(=O)CCSSCC(C(=O)N2CCCC2C(=O)NC(CCCN=C(N)N)C(=O)NCC(N)=O)NC(=O)C(CC(N)=O)NC1=O (stereo not drawn)
qualitative-label: N

compound: Cn1cc(O)nc1NC(=O)Nc1cccc(Cl)c1
qualitative-label: N
